- System: PDE1
- assay.info: In vitro HTRF PDE1 inhibition assay
- Assay type: biochemical
- measurement.context: HTRF cGMP assay, 100 nM cyclic GMP, PDE (1A3, 1B or 1C) with calmodulin, 45 minutes at 37° C.; isoform of the tabulated values not stated
measured.metric: IC50

[[record]]
compound = "CC(C)CC1c2nc3c(cnn3C(C)C)c(=O)n2CCN1Cc1ccccc1 (racemic)"
assay_system = "PDE1"
experimental_result = "1 to 10 µM"

[[record]]
compound = "CC(C)c1nn(C)c2c(=O)n3c(nc12)C(Cc1ccccc1)N(Cc1ccccc1)CC3 (racemic)"
assay_system = "PDE1"
experimental_result = "> 10 µM"

[[record]]
compound = "CC(C)n1ncc2c(=O)n3c(nc21)CN(C)CC3"
assay_system = "PDE1"
experimental_result = "> 10 µM"

[[record]]
compound = "Cc1cnc(CN2CCn3c(nc4c(cnn4C(C)C)c3=O)C2)nc1"
assay_system = "PDE1"
experimental_result = "> 10 µM"

[[record]]
compound = "COCCn1ncc2c(=O)n3c(nc21)CN(Cc1ccc(Cl)cc1)CC3"
assay_system = "PDE1"
experimental_result = "1 to 10 µM"

[[record]]
compound = "O=c1c2cnc(C3CCOCC3)n2nc2n1CCN(Cc1ccc(Cl)cc1)C2"
assay_system = "PDE1"
experimental_result = "< 1 µM"

[[record]]
compound = "CC1NCCn2c1nc1c(cnn1-c1ccccc1)c2=O (racemic)"
assay_system = "PDE1"
experimental_result = "> 10 µM"


====

Below, each entry is listed alongside its reported IC50.
- Tested on: PDE1
- assay.info: In vitro HTRF PDE1 inhibition assay
- Assay type: biochemical
- measurement.context: HTRF cGMP assay, 100 nM cyclic GMP, PDE (1A3, 1B or 1C) with calmodulin, 45 minutes at 37° C.; isoform of the tabulated values not stated
measured.metric: IC50

[[record]]
compound = "COc1ccc(CN2CCn3c(nn4c(CC(C)C)nnc4c3=O)C2)cc1 [Compound I-213]"
experimental_result = "< 1000 nM"

[[record]]
compound = "COCCn1ncc2c(=O)n3c(nc21)CN(Cc1cccc(Cl)c1)CC3 [Compound I-162]"
experimental_result = "1000 to 10000 nM"

[[record]]
compound = "CN1CCn2c(nc3c(cnn3C)c2=O)C1Cc1ccccc1 (racemic) [Compound I-24]"
experimental_result = "> 10000 nM"

[[record]]
compound = "COc1ccc(CN2CCn3c(nc4c(c(C)nn4C4CCCC4)c3=O)C2)cc1 [Compound I-112]"
experimental_result = "> 10000 nM"

[[record]]
compound = "Cc1cnc(CN2CCn3c(nn4c(C5CCCC5)ncc4c3=O)C2)cn1 [Compound I-209]"
experimental_result = "< 1000 nM"

[[record]]
compound = "Cc1cnc(CN2CCn3c(nn4c(C(C)C)ncc4c3=O)C2)nc1 [Compound I-200]"
experimental_result = "1000 to 10000 nM"

[[record]]
compound = "O=c1c2cnc(C3CCCC3)n2nc2n1CCN(Cc1cnccn1)C2 [Compound I-205]"
experimental_result = "< 1000 nM"

[[record]]
compound = "CC1Cn2c(nc3c(cnn3C(C)C)c2=O)CN1C (racemic) [Compound I-104]"
experimental_result = "> 10000 nM"

[[record]]
compound = "O=c1c2cnc(C3CCCC3)n2nc2n1CCN(c1ccc(F)cc1)C2 [Compound I-183]"
experimental_result = "< 1000 nM"

[[record]]
compound = "CC(C)c1n[nH]c2c(=O)n3c(nc12)C(Cc1ccccc1)NCC3 (racemic) [Compound I-12]"
experimental_result = "> 10000 nM"

[[record]]
compound = "CC(C)c1ncc2c(=O)n3c(nn12)CN(c1ccc(F)cc1)CC3 [Compound I-176]"
experimental_result = "< 1000 nM"

[[record]]
compound = "O=c1c2cnn(C3CCCC3)c2nc2n1CCN(Cc1ccc(Cl)cc1)C2 [Compound I-75]"
experimental_result = "< 1000 nM"

[[record]]
compound = "O=c1c2cnn(-c3ccccc3)c2nc2n1CCNC2Cc1ccccc1 (racemic) [Compound I-9]"
experimental_result = "> 10000 nM"

[[record]]
compound = "COc1ccc(CN2CCn3c(nc4c(cnn4C4CCCC4)c3=O)C2)cc1 [Compound I-84]"
experimental_result = "< 1000 nM"

[[record]]
compound = "Cc1nn(C2CCCC2)c2nc3n(c(=O)c12)CCN(Cc1ccc(Cl)cc1)C3 [Compound I-111]"
experimental_result = "> 10000 nM"

[[record]]
compound = "Cc1ccc(CN2CCn3c(nc4c(cnn4C(C)C)c3=O)C2)cn1 [Compound I-186]"
experimental_result = "1000 to 10000 nM"

[[record]]
compound = "CC(C)Cn1ncc2c(=O)n3c(nc21)CN(Cc1ccc(Cl)cc1)CC3 [Compound I-74]"
experimental_result = "< 1000 nM"

[[record]]
compound = "COc1ccc(CN2Cc3nc4c(cnn4C4CCCC4)c(=O)n3CC2C)cc1 (racemic) [Compound I-120]"
experimental_result = "< 1000 nM"

[[record]]
compound = "CC(C)c1ncc2c(=O)n3c(nn12)CN(Cc1cnccn1)CC3 [Compound I-204]"
experimental_result = "1000 to 10000 nM"

[[record]]
compound = "CCC1Cn2c(nc3c(cnn3C(C)C)c2=O)CN1Cc1ccc(Cl)cc1 (racemic) [Compound I-154]"
experimental_result = "1000 to 10000 nM"

[[record]]
compound = "CC(C)c1nnc2c(=O)n3c(nn12)CN(Cc1ccccn1)CC3 [Compound I-226]"
experimental_result = "> 10000 nM"

[[record]]
compound = "O=c1c2cnc(C3CCCC3)n2nc2n1CCN(Cc1cncnc1)C2 [Compound I-193]"
experimental_result = "1000 to 10000 nM"

